System: autophagy in HOS cells (GFP-LC3)
Assay: High content screening autophagy assay (GFP-LC3 foci)
Format: cell-based
Details: Homo sapiens; HOS cells expressing GFP-LC3; autophagy activated with KU-0063794 500 nM plus Bafilomycin A1 5 nM; 6 hours; foci area per cell; read-out: Median IC50 (μM) Cellular assay
Text: Human osteosarcoma cells (HOS) stably expressing a Green Fluorescent Protein (GFP) tagged LC3 (GFP-LC3) were used to determine the inhibitory effect on autophagy of proprietary compounds. […] Images were acquired at 20× magnification, 6 images per well, using the ImageXpress automated microscope (Molecular Devices Inc.) and analyzed with MetaXpress software to identify LC3-GFP foci. […]
ENDPOINT: IC50 (µM)

Worked examples, 2 compounds total:
CC(=O)Nc1cc(-c2cc(-c3ccccc3Cl)[nH]c(=O)c2)ccn1; 0.026
COC(=O)Nc1cc(-c2cc(-c3cccnc3C(F)(F)F)[nH]c(=O)c2)ccn1; 0.022

A: COC(=O)Nc1cc(-c2cc(N3CCOCC3C(F)(F)F)[nH]c(=O)c2)ccn1 (centres unmarked)
B: CC(=O)Nc1cc(-c2cc(N3CCOCC3C(F)(F)F)[nH]c(=O)c2)ccn1 (centres unmarked)
Compare reported IC50 values for A and B . Which is lower? // caller expects the label of the chosen entry A

###

Tested on: autophagy in HOS cells (GFP-LC3)
Test: High content screening autophagy assay (GFP-LC3 foci)
Assay type: cell-based
Conditions: Homo sapiens; HOS cells expressing GFP-LC3; autophagy activated with KU-0063794 500 nM plus Bafilomycin A1 5 nM; 6 hours; foci area per cell; read-out: Median IC50 (μM) Cellular assay
ENDPOINT: IC50 (µM)

Worked examples, 6 molecules total:
CCn1cc(-c2cc(-c3ccnc(NC(=O)OC)c3)cc(=O)[nH]2)c(C(F)(F)F)n1; 0.105
O=C(Nc1cc(-c2cc(N3CCCCC3C(F)(F)F)[nH]c(=O)c2)ccn1)C1CC1 (centres unmarked); 0.016
CCn1cc(-c2cc(-c3ccnc(NC(C)=O)c3)cc(=O)[nH]2)c(C(F)(F)F)n1; 0.138
Nc1cc(-c2cc(-c3ccccc3Cl)[nH]c(=O)c2)ccn1; 0.742
CCS(=O)(=O)N1CCN(c2cc(-c3ccnc(NC(C)=O)c3)cc(=O)[nH]2)C(C(F)(F)F)C1 (centres unmarked); 0.02
COCC(=O)Nc1cc(-c2cc(-c3ccccc3Cl)[nH]c(=O)c2)ccn1; 0.147

A: CC(=O)Nc1cc(-c2cc(-c3cccnc3C(F)(F)F)[nH]c(=O)c2)ccn1
B: CC(=O)Nc1cc(-c2cc(-c3ccccc3C(F)(F)F)[nH]c(=O)c2)ccn1
Compare reported IC50 values for A and B . Which is lower? // caller expects the label of the chosen entry B
(B: 0.063 µM, A: 0.092 µM)

###

Molecular target: UniProt:Q8NEB9
Assay: Vps34 biochemical assay (Adapta kinase assay)
Conditions: 20 μM ATP and 200 μM PI:PS in substrate mix, 1 h at room temperature, TR-FRET, read-out: Median IC50 nM Adapta
ENDPOINT: IC50 (nM)

CC(=O)Nc1cc(-c2cc(N3CCOCC3C3CC3)[nH]c(=O)c2)ccn1 (stereo not drawn); 5
COCC(=O)Nc1cc(-c2cc(-c3ccccc3Cl)[nH]c(=O)c2)ccn1; 7

###

Examples of compounds with documented IC50 follow.
Biological target: Vps34 enzyme (Homo sapiens (Human), UniProt Q8NEB9)
Sequence (Q8NEB9 whole entry): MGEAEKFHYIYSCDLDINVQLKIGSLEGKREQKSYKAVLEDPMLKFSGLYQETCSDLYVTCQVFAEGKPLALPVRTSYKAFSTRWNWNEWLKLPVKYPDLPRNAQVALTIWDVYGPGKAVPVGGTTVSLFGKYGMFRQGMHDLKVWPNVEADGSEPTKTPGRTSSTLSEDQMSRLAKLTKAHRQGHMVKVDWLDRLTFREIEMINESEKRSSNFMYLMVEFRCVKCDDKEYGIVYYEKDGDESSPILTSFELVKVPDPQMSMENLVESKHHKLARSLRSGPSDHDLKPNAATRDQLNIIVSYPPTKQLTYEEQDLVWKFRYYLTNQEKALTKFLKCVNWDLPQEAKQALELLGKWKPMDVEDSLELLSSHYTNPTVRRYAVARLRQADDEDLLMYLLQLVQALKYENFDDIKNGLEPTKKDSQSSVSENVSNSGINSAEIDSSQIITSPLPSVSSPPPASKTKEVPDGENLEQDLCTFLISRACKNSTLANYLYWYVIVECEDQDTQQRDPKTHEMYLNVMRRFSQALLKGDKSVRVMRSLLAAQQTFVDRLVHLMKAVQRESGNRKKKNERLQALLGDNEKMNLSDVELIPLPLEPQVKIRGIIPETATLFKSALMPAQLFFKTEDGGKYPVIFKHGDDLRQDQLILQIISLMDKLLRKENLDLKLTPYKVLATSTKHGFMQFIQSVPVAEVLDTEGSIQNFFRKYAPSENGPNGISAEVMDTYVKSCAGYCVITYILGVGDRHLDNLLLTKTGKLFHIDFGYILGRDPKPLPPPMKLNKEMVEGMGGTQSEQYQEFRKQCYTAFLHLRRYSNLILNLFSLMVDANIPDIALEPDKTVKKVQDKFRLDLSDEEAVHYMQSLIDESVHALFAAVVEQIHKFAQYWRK
Test: Vps34 biochemical assay (Adapta kinase assay)
Conditions: 20 μM ATP and 200 μM PI:PS in substrate mix, 1 h at room temperature, TR-FRET, read-out: Median IC50 nM Adapta

COC(=O)Nc1cc(-c2cc(-c3cccnc3C(F)(F)F)[nH]c(=O)c2)ccn1; < 5 nM
Nc1cc(-c2cc(-c3cccnc3)[nH]c(=O)c2)ccn1; 410 nM
CC(=O)Nc1cc(-c2cc(-c3cccnc3C)[nH]c(=O)c2)ccn1; < 5 nM
CC(=O)Nc1cc(-c2cc(N3CCOCC3C(F)(F)F)[nH]c(=O)c2)ccn1 (centres unmarked); < 5 nM
CC(=O)Nc1cc(-c2cc(N3CCCCC3C(F)(F)F)[nH]c(=O)c2)ccn1 (centres unmarked); 12 nM
COC(=O)Nc1cc(-c2cc(-c3ccccc3Cl)[nH]c(=O)c2)ccn1; < 5 nM

IC50 of CCS(=O)(=O)N1CCN(c2cc(-c3ccnc(NC(C)=O)c3)cc(=O)[nH]2)C(C(F)(F)F)C1 (centres unmarked) , assay on Vps34 enzyme (Homo sapiens (Human), UniProt Q8NEB9), is < 5 nM

IC50 of `CC(=O)Nc1cc(-c2cc(-c3cscc3C(F)(F)F)[nH]c(=O)c2)ccn1` , assay on Vps34 enzyme (Homo sapiens (Human), UniProt Q8NEB9), is < 5 nM

###

Target: Vps34 enzyme (Homo sapiens (Human), UniProt Q8NEB9)
Assay: Vps34 biochemical assay (Adapta kinase assay)
Settings: 20 μM ATP and 200 μM PI:PS in substrate mix, 1 h at room temperature, TR-FRET, read-out: Median IC50 nM Adapta
Method: Dilution series of compounds of the invention were prepared in DMSO at 100 times the final assay concentration (n1=n0/3 in 10 points). […] The assay plate was then incubated at room temperature for 30 min and read with Artemis micro plate reader. Percent inhibition of the compounds as compared to DMSO treated control samples was calculated. […]
ENDPOINT: IC50 (nM)

Nc1cc(-c2cc(-c3ccccc3Cl)[nH]c(=O)c2)ccn1; 45

a: CN(C)C(=O)Nc1cc(-c2cc(-c3ccccc3C(F)(F)F)[nH]c(=O)c2)ccn1
b: COC(C)(C)C1CCCN1c1cc(-c2ccnc(NC(C)=O)c2)cc(=O)[nH]1 (centres unmarked)
c: O=C(Nc1cc(-c2cc(-c3ccccc3C(F)(F)F)[nH]c(=O)c2)ccn1)N1CCCC1
Rank entries according to their IC50, from the largest number down. // respond by listing labels in the order requested c, a, b
(c: 147 nM, a: 50 nM, b: 26 nM)

###

Test system: autophagy in HOS cells (GFP-LC3)
Experiment: High content screening autophagy assay (GFP-LC3 foci)
Type: cell-based
Conditions: Homo sapiens; HOS cells expressing GFP-LC3; autophagy activated with KU-0063794 500 nM plus Bafilomycin A1 5 nM; 6 hours; foci area per cell; read-out: Median IC50 (μM) Cellular assay
ENDPOINT: IC50 (µM)

COC(=O)Nc1cc(-c2cc(-c3ccccc3Cl)[nH]c(=O)c2)ccn1 [Example 50]; 0.029

P: COC(=O)Nc1cc(-c2cc(-c3ccccc3C(F)(F)F)[nH]c(=O)c2)ccn1 [Example 48]
Q: CC(=O)Nc1cc(-c2cc(N3CCCCC3C(F)(F)F)[nH]c(=O)c2)ccn1 (stereo not shown) [Example 19]
Compare reported IC50 values for P and Q . Which is lower? // caller expects the label of the chosen entry P

###

Examples of compounds with documented IC50 follow.
Target: Vps34 enzyme (Homo sapiens (Human), UniProt Q8NEB9)
Experiment: Vps34 biochemical assay (Adapta kinase assay)
Conditions: 20 μM ATP and 200 μM PI:PS in substrate mix, 1 h at room temperature, TR-FRET, read-out: Median IC50 nM Adapta

COC(=O)Nc1cc(-c2cc(-c3ccccc3C(F)(F)F)[nH]c(=O)c2)ccn1; < 5 nM
CC(=O)Nc1cc(-c2cc(-c3ccccc3C(F)(F)F)[nH]c(=O)c2)ccn1; < 5 nM
CCn1cc(-c2cc(-c3ccnc(NC(=O)OC)c3)cc(=O)[nH]2)c(C(F)(F)F)n1; < 5 nM

Here's the next entry for you.
IC50 of O=C(Nc1cc(-c2cc(N3CCCCC3C(F)(F)F)[nH]c(=O)c2)ccn1)C1CC1 (stereo not shown) , assay on Vps34 enzyme (Homo sapiens (Human), UniProt Q8NEB9), is < 5 nM
